tested on: PRMT1 (protein arginine N-methyltransferase 1); test: PRMT1 binders on small-molecule microarrays, primary screen, biochemical, small-molecule microarray, 635 nm fluorescence (AID 1088); conditions: small-molecule microarray binding, higher = more signal;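 further: binding of Prmt1 protein to compounds spotted on small-molecule microarray slides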
# composite z-score >= 0.3 gives Yes, anything below gives No

Answered cases to consult:
CCOC(=O)C[C@H]1[C@H](OC(=O)Cc2ccc3c(c2)OCO3)[C@@H](NC(=O)Cc2ccc(OC)cc2)c2cc(OCCCO)ccc2N1C(=O)c1ccc2ccccc2n1 | Yes
CCOC(=O)C1=C[C@@H](c2ccccc2)N(S(=O)(=O)c2ccc(C)cc2)[C@H]1c1ccccc1Cl | Yes
O=C1C=C(c2ccccc2)C(=O)c2ccc([C@H]3Oc4ccccc4S(=O)(=O)N4CCC[C@@H]34)cc21 | No

Below: the item to evaluate.
## Input Could you tell me if the measured composite z-score of `COc1cc(CO)cc(I)c1O[C@H]1C=C(C(=O)NCCO)C[C@@H](NCc2ccc(F)cc2)[C@@H]1O` reaches 0.3 or more?
## Output Yes
